# Species: Rattus norvegicus
# assay-notes: DrugMatrix - Regimen: Daily Repeat
# Format: toxicity, organism-based, Sprague-Dawley
# Set-up: regimen Daily Repeat, gender Male, age 6-8 weeks
# protocol-conditions: in vivo, po, 10 mg/kg, 72 h, tissue Plasma, route oral GAVAGE, dose level Low, time 3 day, […]
Task for the reader: assign each of the following molecules its reported LIPASE.
State the answer as a number, implicitly in u/L.

(Q) Item CCOC(=O)C1=C(C)NC(C)=C(C(=O)OC)C1c1cccc([N+](=O)[O-])c1 (centres undefined) [NITRENDIPINE] has what recorded LIPASE?
(A) 11.33

(Q) Can you check COc1ccc2cc([C@H](C)C(=O)O)ccc2c1 [NAPROXEN] next?
(A) 9.33

(Q) Can you check COCCOC(=O)C1=C(C)NC(C)=C(C(=O)OC(C)C)C1c1cccc([N+](=O)[O-])c1 (centres undefined) [NIMODIPINE] next?
(A) 10.67

(Q) Can you check CC(C)CC(N(C)C)C1(c2ccc(Cl)cc2)CCC1 (centres undefined) [SIBUTRAMINE] next?
(A) 10.33

* * *

# Organism: Rattus norvegicus
# assay-notes: DrugMatrix - Regimen: Daily Repeat
# Format: toxicity, organism-based, Sprague-Dawley
# Design: regimen Daily Repeat, gender Male, age 6-8 weeks
# protocol-conditions: in vivo, po, 0 mg/kg, 120 h, tissue Plasma, route oral GAVAGE, dose level Control, time 5 day, vehicle 100 % WATER
recorded-endpoint: POTASSIUM (MEQ/L)
State the answer as a number, implicitly in MEQ/L.

(Q) Item COC(=O)C1=C(C)NC(C)=C(C(=O)OCC(C)C)C1c1ccccc1[N+](=O)[O-] (centres undefined) has what recorded POTASSIUM?
(A) 6.11

(Q) Can you check C[N+](C)(C)CCO.[Cl-] [CHOLINE CHLORIDE] next?
(A) 6.81

(Q) Can you check CC(C)NCC(O)COc1cccc2ccccc12 (centres undefined) next?
(A) 6.76

(Q) Can you check ClC(Cl)Cl [CHLOROFORM] next?
(A) 6.11

* * *

Task for the reader: assign each of the following molecules its reported PLATELET COUNT.
# Organism: Rattus norvegicus
# assay-notes: DrugMatrix - Regimen: Daily Repeat
# Assay type: toxicity, organism-based, Sprague-Dawley
# Parameters: regimen Daily Repeat, gender Male, age 6-8 weeks
# protocol-conditions: in vivo, po, 0 mg/kg, 72 h, tissue Blood, route oral GAVAGE, dose level Control, time 3 day, vehicle .5 % CMC
State the answer as a number, implicitly in x10E3/uL.

(Q) Item N=C(N)NC(=O)c1nc(Cl)c(N)nc1N [AMILORIDE] has what recorded PLATELET COUNT?
(A) 1327.5

(Q) Can you check C#C[C@]1(O)CC[C@H]2[C@@H]3CCc4cc(OC)ccc4[C@H]3CC[C@@]21C next?
(A) 1250.83

(Q) Can you check O=C1CCC(N2C(=O)c3ccccc3C2=O)C(=O)N1 (stereo not drawn) [THALIDOMIDE] next?
(A) 1217.17

(Q) Can you check C[C@]1(Cn2ccnn2)[C@H](C(=O)O)N2C(=O)C[C@H]2S1(=O)=O next?
(A) 1239.5

(Q) Can you check CN1CCC(=C2c3ccccc3C=Cc3ccccc32)CC1 next?
(A) 1264.4

(Q) Can you check CO[C@H]1/C=C/O[C@@]2(C)Oc3c(C)c(O)c4c(c3C2=O)C2=NC3(CCN(CC(C)C)CC3)NC2=C(NC(=O)/C(C)=C\C=C\[C@H](C)[C@H](O)[C@@H](C)[C@@H](O)[C@@H](C)[C@H](OC(C)=O)[C@@H]1C)C4=O next?
(A) 1250.83

(Q) Can you check Clc1ccc2c(c1)C(N1CCNCC1)=Nc1ccccc1O2 next?
(A) 1188.5

(Q) Can you check CC[C@@H](CO)NCCN[C@@H](CC)CO next?
(A) 1327.5

* * *

# Organism: Rattus norvegicus
# assay-notes: DrugMatrix - Regimen: Daily Repeat
# Type: toxicity, organism-based, Sprague-Dawley
# Design: regimen Daily Repeat, gender Male, age 6-8 weeks
# protocol-conditions: in vivo, po, 0 mg/kg, 120 h, tissue Blood, route oral GAVAGE, dose level Control, time 5 day, vehicle 100 % WATER
recorded-endpoint: ERYTHROCYTE COUNT (x10E6/uL)
State the answer as a number, implicitly in x10E6/uL.

(Q) Item Cc1ncc([N+](=O)[O-])n1CCO has what recorded ERYTHROCYTE COUNT?
(A) 5.78

(Q) Can you check C[C@@H]1C[C@@H]([C@H](O)CC2CC(=O)NC(=O)C2)C(=O)[C@@H](C)C1 [CYCLOHEXIMIDE] next?
(A) 5.74

(Q) Can you check COC(=O)C1=C(C)NC(C)=C(C(=O)OCC(C)C)C1c1ccccc1[N+](=O)[O-] (centres undefined) next?
(A) 5.49

(Q) Can you check CC(C)(C)c1ccc(C(=O)CCCN2CCC(OC(c3ccccc3)c3ccccc3)CC2)cc1 next?
(A) 5.53

(Q) Can you check Nc1ccn([C@@H]2CS[C@H](CO)O2)c(=O)n1 next?
(A) 5.49

(Q) Can you check CC(C)NCC(O)COc1cccc2ccccc12 (centres undefined) next?
(A) 5.76

(Q) Can you check ClC(Cl)Cl [CHLOROFORM] next?
(A) 5.78

(Q) Can you check CC(C)C[C@H](NC(=O)[C@@H](O)[C@H](N)Cc1ccccc1)C(=O)O next?
(A) 5.78

(Q) Can you check C[N+](C)(C)CCO.[Cl-] [CHOLINE CHLORIDE] next?
(A) 5.54

* * *

# Organism: Rattus norvegicus
# assay-notes: DrugMatrix - Regimen: Daily Repeat
# Type: toxicity, organism-based, Sprague-Dawley
# Design: regimen Daily Repeat, gender Male, age 6-8 weeks
# protocol-conditions: in vivo, po, 0 mg/kg, […], tissue Blood, route oral GAVAGE, dose level Control, time 14 day
recorded-endpoint: ABSOLUTE LYMPHOCYTE (cells/µL)
State the answer as a number, implicitly in cells/µL.

(Q) Item Clc1ccc(Cl)cc1 has what recorded ABSOLUTE LYMPHOCYTE?
(A) 12200

* * *

# Organism: Rattus norvegicus
# assay-notes: DrugMatrix - Regimen: Daily Repeat
# Format: toxicity, organism-based, Sprague-Dawley
# Design: regimen Daily Repeat, gender Male, age 6-8 weeks
# protocol-conditions: in vivo, po, 0 mg/kg, 120 h, tissue Plasma, route oral GAVAGE, dose level Control, time 5 day, vehicle 100 % WATER
Task for the reader: assign each of the following compounds its reported CARBON DIOXIDE.
State the answer as a number, implicitly in mmol/L.

(Q) Item COC(=O)C1=C(C)NC(C)=C(C(=O)OCC(C)C)C1c1ccccc1[N+](=O)[O-] (stereo not given) has what recorded CARBON DIOXIDE?
(A) 32

(Q) Can you check ClC(Cl)Cl [CHLOROFORM] next?
(A) 32.33

(Q) Can you check Cc1ncc([N+](=O)[O-])n1CCO next?
(A) 32.33

(Q) Can you check CC(C)NCC(O)COc1cccc2ccccc12 (stereo not given) next?
(A) 25

(Q) Can you check COc1cc2ncnc(Nc3ccc(F)c(Cl)c3)c2cc1OCCCN1CCOCC1 next?
(A) 38.83

(Q) Can you check C[N+](C)(C)CCO.[Cl-] [CHOLINE CHLORIDE] next?
(A) 28.33

(Q) Can you check C[C@@H]1C[C@@H]([C@H](O)CC2CC(=O)NC(=O)C2)C(=O)[C@@H](C)C1 [CYCLOHEXIMIDE] next?
(A) 32.33

(Q) Can you check Nc1ccn([C@@H]2CS[C@H](CO)O2)c(=O)n1 next?
(A) 31.33

(Q) Can you check CC(C)C[C@H](NC(=O)[C@@H](O)[C@H](N)Cc1ccccc1)C(=O)O next?
(A) 26.5

(Q) Can you check CC(C)(C)c1ccc(C(=O)CCCN2CCC(OC(c3ccccc3)c3ccccc3)CC2)cc1 next?
(A) 29.33

* * *

Task for the reader: assign each of the following compounds its reported MEAN CORPUSCULAR VOLUME.
# Species on record: Rattus norvegicus
# assay-notes: DrugMatrix - Regimen: Daily Repeat
# Assay type: toxicity, organism-based, Sprague-Dawley
# Set-up: regimen Daily Repeat, gender Male, age 6-8 weeks
# protocol-conditions: in vivo, po, 10 mg/kg, 120 h, tissue Blood, route oral GAVAGE, dose level Low, time 5 day, […]
State the answer as a number, implicitly in fL.

(Q) Item COCCOC(=O)C1=C(C)NC(C)=C(C(=O)OC(C)C)C1c1cccc([N+](=O)[O-])c1 (centres undefined) [NIMODIPINE] has what recorded MEAN CORPUSCULAR VOLUME?
(A) 63.63

(Q) Can you check CC(C)CC(N(C)C)C1(c2ccc(Cl)cc2)CCC1 (centres undefined) [SIBUTRAMINE] next?
(A) 62.2

(Q) Can you check CCOC(=O)C1=C(C)NC(C)=C(C(=O)OC)C1c1cccc([N+](=O)[O-])c1 (centres undefined) [NITRENDIPINE] next?
(A) 64.8

(Q) Can you check COc1ccc2cc([C@H](C)C(=O)O)ccc2c1 [NAPROXEN] next?
(A) 65
